Biological target: human α7 nAChR (Homo sapiens, UniProt P36544)
Construct: expressed in transfected cells
Sequence (P36544 23-502): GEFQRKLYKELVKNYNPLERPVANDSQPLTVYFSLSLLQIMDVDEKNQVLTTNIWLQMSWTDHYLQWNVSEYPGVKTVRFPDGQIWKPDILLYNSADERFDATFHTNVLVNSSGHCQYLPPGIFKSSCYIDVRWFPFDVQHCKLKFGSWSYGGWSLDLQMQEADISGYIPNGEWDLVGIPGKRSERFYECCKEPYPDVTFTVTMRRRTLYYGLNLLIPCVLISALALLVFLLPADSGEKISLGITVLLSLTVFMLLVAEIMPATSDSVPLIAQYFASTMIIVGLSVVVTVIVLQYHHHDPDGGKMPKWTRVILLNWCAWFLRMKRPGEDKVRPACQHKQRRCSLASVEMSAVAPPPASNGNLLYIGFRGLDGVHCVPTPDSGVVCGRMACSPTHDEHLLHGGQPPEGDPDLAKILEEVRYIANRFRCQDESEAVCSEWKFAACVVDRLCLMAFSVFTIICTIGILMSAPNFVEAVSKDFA
Assay: Evaluation of PAM activity with human α7 nACh receptor stably expressing cells (aequorin luminescence, FDSS7000)
Format: cell-based
Conditions: 10 μM test compound; ACh at EC20; ratio of RLU (Max-Min) to control wells; read-out: α7PAM (%) @10 μM
metric-name: activity at 10 µM (%)
Give just the number in %; leave the unit off.

## Input Dear colleague, I am looking for the recorded activity at 10 µM of the following compound: `O=C(C1CCOCC1)N1[C@@H]2CC[C@H]1C[C@@H](n1cnc(-c3cccc(F)c3F)c1Cl)C2`
## Output 508

## Input Dear colleague, I am looking for the recorded activity at 10 µM of the following compound: `O=C(NC1CCC(F)(F)CC1)N1[C@@H]2CC[C@H]1C[C@H](n1cnc(-c3ccc(F)cc3F)c1)C2`
## Output 904

## Input Dear colleague, I am looking for the recorded activity at 10 µM of the following compound: `N#Cc1c(-c2cccc(F)c2F)ncn1C1CCN(C(=O)C2CCC(F)(F)CC2)CC1`
## Output 138

## Input Dear colleague, I am looking for the recorded activity at 10 µM of the following compound: `O=C(NC1CCCC1)N1CCC(n2cnc(-c3cccc(F)c3)c2Cl)CC1`
## Output 671

## Input Dear colleague, I am looking for the recorded activity at 10 µM of the following compound: `COc1ccc(-c2ncn(C3CCN(C(=O)C4CCC(F)(F)CC4)CC3)c2C#N)cc1`
## Output 990

## Input Dear colleague, I am looking for the recorded activity at 10 µM of the following compound: `N#Cc1c(-c2ccc(F)cc2)ncn1[C@H]1CC[C@@H](NC(=O)C2CCC(F)(F)CC2)CC1`
## Output 312

## Input Dear colleague, I am looking for the recorded activity at 10 µM of the following compound: `O=C(NC1CCC(F)(F)CC1)N1CCC(n2cnc(-c3ccncc3)c2Cl)CC1`
## Output 309

## Input Dear colleague, I am looking for the recorded activity at 10 µM of the following compound: `O=C(N[C@H]1CC[C@@H](n2cnc(-c3ccccc3)c2Cl)CC1)C1(C(F)(F)F)CC1`
## Output 224

## Input Dear colleague, I am looking for the recorded activity at 10 µM of the following compound: `O=C(NC1CCCCC1)N1[C@@H]2CC[C@H]1C[C@H](n1cnc(-c3ccccc3)c1)C2`
## Output 629

## Input Dear colleague, I am looking for the recorded activity at 10 µM of the following compound: `O=C(NC1CCCCC1)N1CCC(n2cnc(-c3ccc(F)cc3)c2)CC1`
## Output 596

## Input Dear colleague, I am looking for the recorded activity at 10 µM of the following compound: `O=C(C1CCOCC1)N1CCC(n2cnc(-c3cccc(F)c3)c2Cl)CC1`
## Output 137

## Input Dear colleague, I am looking for the recorded activity at 10 µM of the following compound: `O=C(C1CCC(F)(F)CC1)N1CCC(n2cnc(-c3ccc(C(F)(F)F)cc3)c2)CC1`
## Output 597

## Input Dear colleague, I am looking for the recorded activity at 10 µM of the following compound: `O=C(N[C@H]1CC[C@@H](n2cnc(-c3ccc(Cl)cc3)c2)CC1)C(F)F`
## Output 101

## Input Dear colleague, I am looking for the recorded activity at 10 µM of the following compound: `O=C(C1CCC(F)(F)CC1)N1[C@@H]2CC[C@H]1C[C@@H](n1cnc(-c3cccc(F)c3F)c1Cl)C2`
## Output 813

## Input Dear colleague, I am looking for the recorded activity at 10 µM of the following compound: `O=C(NC1CCCCC1)N1CCC(n2cnc(-c3ccncc3)c2Cl)CC1`
## Output 154

## Input Dear colleague, I am looking for the recorded activity at 10 µM of the following compound: `CC(C)(F)C(=O)N[C@H]1CC[C@@H](n2cnc(-c3ccc(OC(F)(F)F)cc3)c2C#N)CC1`
## Output 169

====

Would you mind telling me the reported activity at 10 µM of each entry?
Molecular target: human α7 nAChR (Homo sapiens, UniProt P36544)
Construct: expressed in transfected cells
Assay: Evaluation of PAM activity with human α7 nACh receptor stably expressing cells (aequorin luminescence, FDSS7000)
Type: cell-based
Settings: 10 μM test compound; ACh at EC20; ratio of RLU (Max-Min) to control wells; read-out: α7PAM (%) @10 μM
Give just the number in %; leave the unit off.

## Input Dear colleague, I am looking for the recorded activity at 10 µM of the following molecule: `N#Cc1c(-c2cccc(F)c2F)ncn1[C@H]1C[C@H]2CC[C@@H](C1)N2C(=O)NC1CCC(F)(F)CC1`
## Output 292

## Input Dear colleague, I am looking for the recorded activity at 10 µM of the following molecule: `CC(C)(F)C(=O)N[C@H]1CC[C@@H](n2cnc(-c3ccc(OC(F)(F)F)cc3F)c2C#N)CC1`
## Output 130

## Input Dear colleague, I am looking for the recorded activity at 10 µM of the following molecule: `N#Cc1c(-c2cc(F)ccc2F)ncn1C1CCN(C(=O)C2CCC(F)(F)CC2)CC1`
## Output 351

## Input Dear colleague, I am looking for the recorded activity at 10 µM of the following molecule: `O=C(NC1CCOCC1)N1CCC(n2cnc(-c3ccc(F)cc3)c2)CC1`
## Output 197

## Input Dear colleague, I am looking for the recorded activity at 10 µM of the following molecule: `O=C(NC1CCOCC1)N1[C@@H]2CC[C@H]1C[C@@H](n1cnc(-c3ccc(F)cc3F)c1Cl)C2`
## Output 869

## Input Dear colleague, I am looking for the recorded activity at 10 µM of the following molecule: `CC(F)(F)C(=O)N[C@H]1CC[C@@H](n2cnc(-c3ccc(Cl)cc3)c2)CC1`
## Output 420

## Input Dear colleague, I am looking for the recorded activity at 10 µM of the following molecule: `O=C(NC1CCCCCC1)N1CCC(n2cnc(-c3ccccc3)c2)CC1`
## Output 520

## Input Dear colleague, I am looking for the recorded activity at 10 µM of the following molecule: `O=C(C1CCC(F)(F)CC1)N1CCC(n2cnc(-c3cccc(F)c3)c2)CC1`
## Output 346

## Input Dear colleague, I am looking for the recorded activity at 10 µM of the following molecule: `COc1cc(-c2ncn([C@H]3CC[C@@H](NC(=O)C(C)(C)F)CC3)c2Cl)ccc1F`
## Output 254

## Input Dear colleague, I am looking for the recorded activity at 10 µM of the following molecule: O=C(NC1CCCCC1)N1CCCC(n2cnc(-c3ccc(F)cc3)c2)CC1 (stereo not shown)
## Output 280

## Input Dear colleague, I am looking for the recorded activity at 10 µM of the following molecule: `N#Cc1c(-c2ccc(F)cc2)ncn1[C@H]1CC[C@@H](C(=O)NC2CCOCC2)CC1`
## Output 966

## Input Dear colleague, I am looking for the recorded activity at 10 µM of the following molecule: `N#Cc1c(-c2cccc(Cl)c2)ncn1C1CCN(C(=O)C2CCC(F)(F)CC2)CC1`
## Output 367

## Input Dear colleague, I am looking for the recorded activity at 10 µM of the following molecule: O=C(NC1CCOC1)[C@H]1CC[C@@H](n2cnc(-c3ccc(F)cc3)c2Cl)CC1 (stereo partly shown)
## Output 834

## Input Dear colleague, I am looking for the recorded activity at 10 µM of the following molecule: `N#Cc1c(-c2ccc(F)cc2F)ncn1[C@@H]1C[C@H]2CC[C@@H](C1)N2C(=O)NC1CCC(F)(F)CC1`
## Output 131

## Input Dear colleague, I am looking for the recorded activity at 10 µM of the following molecule: `O=C(C1CCC(F)(F)CC1)N1CCC(n2cnc(-c3ccc(F)cc3)c2Cl)CC1`
## Output 862

## Input Dear colleague, I am looking for the recorded activity at 10 µM of the following molecule: O=C(C1CCC(F)(F)CC1)N1CCCC(n2cnc(-c3ccc(F)cc3)c2Cl)CC1 (stereo not shown)
## Output 290

====

Molecular target: human α7 nAChR (Homo sapiens, UniProt P36544)
Construct: expressed in transfected cells
Experiment: Evaluation of PAM activity with human α7 nACh receptor stably expressing cells (aequorin luminescence, FDSS7000)
Type: cell-based
Conditions: 10 μM test compound; ACh at EC20; ratio of RLU (Max-Min) to control wells; read-out: α7PAM (%) @10 μM
metric-name: activity at 10 µM (%)
Give just the number in %; leave the unit off.

## Input Dear colleague, I am looking for the recorded activity at 10 µM of the following molecule: `CC(C)(C)C(=O)N[C@H]1CC[C@@H](n2cnc(-c3ccccc3)c2Cl)CC1`
## Output 221

## Input Dear colleague, I am looking for the recorded activity at 10 µM of the following molecule: `O=C(NC1CCCCC1)N1CCC(n2cnc(-c3ccc(C(F)(F)F)cc3)c2)CC1`
## Output 209

## Input Dear colleague, I am looking for the recorded activity at 10 µM of the following molecule: `CC(C)(F)C(=O)N[C@H]1CC[C@@H](n2cnc(-c3ccc(Cl)cc3F)c2)CC1`
## Output 390

## Input Dear colleague, I am looking for the recorded activity at 10 µM of the following molecule: `O=C(N[C@H]1CC[C@@H](n2cnc(-c3ccc(F)cc3)c2)CC1)C1CCOCC1`
## Output 229

## Input Dear colleague, I am looking for the recorded activity at 10 µM of the following molecule: `O=C(C1CCC(F)(F)CC1)N1CCC(n2cnc(-c3cccc(OC(F)F)c3)c2)CC1`
## Output 363

## Input Dear colleague, I am looking for the recorded activity at 10 µM of the following molecule: `CCOc1ccc(-c2cn(C3CCN(C(=O)NC4CCC(F)(F)CC4)CC3)cn2)cc1`
## Output 915

## Input Dear colleague, I am looking for the recorded activity at 10 µM of the following molecule: `O=C(NC1CCOCC1)N1CCC(n2cnc(-c3ccc(Cl)cc3F)c2)CC1`
## Output 901

## Input Dear colleague, I am looking for the recorded activity at 10 µM of the following molecule: `O=C(C1CCC(F)(F)CC1)N1[C@@H]2CC[C@H]1C[C@@H](n1cnc(-c3ccc(F)cc3)c1Cl)C2`
## Output 836

Just for reference, patent US20150259344A1 is where these values come from.
